targetOrSystem: hKv1.5 V505A mutant channel (Homo sapiens, UniProt P22460, V505A)
Construct: Full-length cDNA encoding wild-type (WT) hKv1.5 (KCNA5) subcloned into the pcDNA3.1 expression vector
Sequence (P22460 whole entry V505A): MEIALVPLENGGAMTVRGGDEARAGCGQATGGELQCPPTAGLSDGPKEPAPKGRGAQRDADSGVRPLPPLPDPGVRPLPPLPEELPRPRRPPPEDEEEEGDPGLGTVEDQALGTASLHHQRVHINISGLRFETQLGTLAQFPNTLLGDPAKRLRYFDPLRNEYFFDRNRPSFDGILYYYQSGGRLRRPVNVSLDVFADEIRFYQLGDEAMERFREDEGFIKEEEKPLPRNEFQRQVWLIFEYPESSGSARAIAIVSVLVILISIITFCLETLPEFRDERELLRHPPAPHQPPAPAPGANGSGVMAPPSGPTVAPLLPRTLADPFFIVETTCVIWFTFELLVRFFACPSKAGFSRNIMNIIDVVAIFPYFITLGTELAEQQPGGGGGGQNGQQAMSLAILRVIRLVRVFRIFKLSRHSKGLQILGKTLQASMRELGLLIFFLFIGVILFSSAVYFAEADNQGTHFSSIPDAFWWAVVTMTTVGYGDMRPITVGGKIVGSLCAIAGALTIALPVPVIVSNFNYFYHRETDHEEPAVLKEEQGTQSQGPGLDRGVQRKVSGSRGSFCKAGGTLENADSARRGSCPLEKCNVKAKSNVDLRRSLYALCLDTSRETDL
testProtocol: whole-cell patch-clamp of V505A mutant hKv1.5 current in CHO cells
recordedConditions: V505A; Hill fit; n = 7
quantityKind: IC50
Number first, unit second.

Value of measured IC50 for the entry CNC(=O)c1ccc(OC)c(OCC(=O)Nc2ccc(F)c(Cl)c2)c1-c1c(C(=O)NC)ccc(OC)c1OCC(=O)Nc1ccc(F)c(Cl)c1 [HMQ1611] : 6.44 µM

---

targetOrSystem: wild-type (WT) hKv1.5 (KCNA5) channel (Homo sapiens, UniProt P22460)
Construct: Full-length cDNA encoding wild-type (WT) hKv1.5 (KCNA5) subcloned into the pcDNA3.1 expression vector
Sequence (P22460 whole entry): as the sequence (P22460 whole entry V505A) above, with A505V counted along it
testProtocol: whole-cell patch-clamp of wild-type hKv1.5 current in transfected CHO cells
recordedConditions: WT; late current at end of 300 ms depolarizing step to +30 mV; CHO cells; Hill fit; n = 7; read-out: IC50 for inhibition of hKv1.5 current
quantityKind: pIC50
Reminder that pIC50 means the negative base-10 logarithm of the concentration expressed in mol/L.

Value of measured pIC50 for the entry `CNC(=O)c1ccc(OC)c(OCC(=O)Nc2ccc(F)c(Cl)c2)c1-c1c(C(=O)NC)ccc(OC)c1OCC(=O)Nc1ccc(F)c(Cl)c1` : 5.68

---

targetOrSystem: wild-type (WT) hKv1.5 (KCNA5) channel (Homo sapiens, UniProt P22460)
Construct: Full-length cDNA encoding wild-type (WT) hKv1.5 (KCNA5) subcloned into the pcDNA3.1 expression vector
testProtocol: whole-cell patch-clamp of wild-type hKv1.5 current in transfected CHO cells
recordedConditions: apparent dissociation constant; +30 mV; read-out: KD value derived by (k-1)/(k+1)
quantityKind: Kd (µM)
Give the number; µM is assumed, so skip it.

Summary: CNC(=O)c1ccc(OC)c(OCC(=O)Nc2ccc(F)c(Cl)c2)c1-c1c(C(=O)NC)ccc(OC)c1OCC(=O)Nc1ccc(F)c(Cl)c1 [HMQ1611] , wild-type (WT) hKv1.5 (KCNA5) channel (Homo sapiens, UniProt P22460), Kd = 4.48

---

targetOrSystem: hKv1.5 I508A mutant channel (Homo sapiens, UniProt P22460, I508A)
Construct: Full-length cDNA encoding wild-type (WT) hKv1.5 (KCNA5) subcloned into the pcDNA3.1 expression vector
Sequence (P22460 whole entry I508A): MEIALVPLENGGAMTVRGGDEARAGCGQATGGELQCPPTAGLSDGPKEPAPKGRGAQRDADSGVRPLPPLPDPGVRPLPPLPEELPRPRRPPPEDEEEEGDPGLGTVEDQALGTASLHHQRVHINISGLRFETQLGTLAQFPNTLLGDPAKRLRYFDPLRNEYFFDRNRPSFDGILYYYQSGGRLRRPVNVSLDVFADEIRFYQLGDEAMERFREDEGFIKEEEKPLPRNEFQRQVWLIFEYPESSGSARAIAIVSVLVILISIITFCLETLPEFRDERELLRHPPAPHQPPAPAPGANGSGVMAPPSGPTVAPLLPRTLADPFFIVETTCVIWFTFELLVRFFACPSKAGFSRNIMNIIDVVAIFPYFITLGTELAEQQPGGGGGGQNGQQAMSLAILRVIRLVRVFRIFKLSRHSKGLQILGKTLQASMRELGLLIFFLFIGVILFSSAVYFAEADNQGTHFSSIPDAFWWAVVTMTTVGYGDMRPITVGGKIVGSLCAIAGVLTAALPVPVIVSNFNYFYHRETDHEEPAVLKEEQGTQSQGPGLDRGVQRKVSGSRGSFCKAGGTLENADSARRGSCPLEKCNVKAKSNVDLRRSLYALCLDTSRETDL
testProtocol: whole-cell patch-clamp of I508A mutant hKv1.5 current in CHO cells
recordedConditions: I508A; Hill fit; n = 7
quantityKind: pIC50
Reminder that pIC50 means the negative base-10 logarithm of the concentration expressed in mol/L.

Value of measured pIC50 for the entry `CNC(=O)c1ccc(OC)c(OCC(=O)Nc2ccc(F)c(Cl)c2)c1-c1c(C(=O)NC)ccc(OC)c1OCC(=O)Nc1ccc(F)c(Cl)c1` : 4.98

The reported measurements were obtained from paper PMC9524145.
